Provenance of the data: ChEMBL document CHEMBL4513216

assay.remarks: Toxicity liver stage against HepG2, at 10uM
Assay type: cell-based
Parameters: test concentration 10 uM, cell line HepG2-A16-CD81EGFP
experimental.parameters: human, HepG2-A16-CD81EGFP cells; read-out: INHIBITION
measurement.kind: cytotoxicity at 10 µM (%)

compound: CS(=O)(=O)c1cccc(C(=O)NCC2(c3ccccc3)CC2)c1
readout.units: %
recorded.result: 1.47

compound: CC(C)(C)C(=O)N1CCC2(COCc3cnc(N4CCOCC4)nc32)C1 (centres undefined)
readout.units: %
recorded.result: -14.2

compound: CC(C)Oc1cccc(Cc2nc3c([nH]2)CCCNC3=O)c1
readout.units: %
recorded.result: -12.9

compound: CC(C)Nc1nc(O)cc(C2CC(=O)N(C3CCCCC3)C2)n1 (centres undefined)
readout.units: %
recorded.result: 4.5

compound: COCCOc1cc(C)ccc1NC(=O)N(C)Cc1cnn(C)c1
readout.units: %
recorded.result: -9.5

compound: CNC(=O)CCS(=O)(=O)Cc1coc(-c2ccc(F)cc2)n1
readout.units: %
recorded.result: -3

compound: CC(CC(=O)NS(C)(=O)=O)C1CCCCC1 (centres undefined)
readout.units: %
recorded.result: -13.5

compound: CCOc1ccc(C(=O)N2CCCC(n3ccnc3C)C2)cc1OC (centres undefined)
readout.units: %
recorded.result: -6.7

compound: CCc1ncc2c(n1)CN(Cc1cnc(C)cn1)CC2
readout.units: %
recorded.result: -7.51

compound: COCC(=O)N1CCCC(c2noc3nc(C)cc(C(F)(F)F)c23)C1 (centres undefined)
readout.units: %
recorded.result: -2.25

compound: CCN(Cc1nc(COC)no1)C(=O)CCNC(=O)c1ccccc1F
readout.units: %
recorded.result: -4.17

compound: CC(C)(C)OC(=O)N1CSC[C@@H]1C(=O)NCc1ccc(C#N)cc1
readout.units: %
recorded.result: 11.6

compound: Cc1nn(C)c(C)c1C1CCCN1C(=O)c1cnccn1 (centres undefined)
readout.units: %
recorded.result: -15.7

compound: COc1c(C2CCCN2C(=O)c2csc(C3CC3)n2)c(C)nn1C (centres undefined)
readout.units: %
recorded.result: 4.53

compound: Cc1nc(C)n(C2CCCN(C(=O)c3sccc3C)C2)n1 (centres undefined)
readout.units: %
recorded.result: -8.93

compound: COc1c(CNCc2ccc(N(C)C)nc2)c(C(C)C)nn1C
readout.units: %
recorded.result: -9.75

compound: CC1c2ncc(COc3cccnc3)n2CCN1Cc1ccco1 (centres undefined)
readout.units: %
recorded.result: -105

compound: Cc1nc(C2CCCN(C(=O)c3ccco3)C2)no1 (centres undefined)
readout.units: %
recorded.result: 0.529

compound: CC(C)Oc1ncc(C(=O)N2CCC(CC(N)=O)CC2)cc1Cl
readout.units: %
recorded.result: -9.47

compound: Cn1cc(CNCCc2nccs2)c(-c2cccnc2)n1
readout.units: %
recorded.result: 1.83

compound: O=C(NCCNc1ccc(C(F)(F)F)cn1)c1cncc(Br)c1
readout.units: %
recorded.result: 2.24

compound: COc1cccc2c1OCC(C(=O)NCCCn1nc(C)c(Cl)c1C)C2 (centres undefined)
readout.units: %
recorded.result: -4.12

compound: COc1ccccc1CC(=O)N1CC[C@H](O)[C@]2(CCCO2)C1
readout.units: %
recorded.result: -6.75

compound: O=C(c1ccc(-n2cnnn2)cc1)N1CCCC(n2ccnc2)C1 (centres undefined)
readout.units: %
recorded.result: -24.7
